The measured values listed here are drawn from patent US20210206856A1.

Target: T1, mouse MAdCAM expressed on cells (mouse, UniProt Q61826 22-405)
T1 construct: whole, on cells
T1 sequence (looked up): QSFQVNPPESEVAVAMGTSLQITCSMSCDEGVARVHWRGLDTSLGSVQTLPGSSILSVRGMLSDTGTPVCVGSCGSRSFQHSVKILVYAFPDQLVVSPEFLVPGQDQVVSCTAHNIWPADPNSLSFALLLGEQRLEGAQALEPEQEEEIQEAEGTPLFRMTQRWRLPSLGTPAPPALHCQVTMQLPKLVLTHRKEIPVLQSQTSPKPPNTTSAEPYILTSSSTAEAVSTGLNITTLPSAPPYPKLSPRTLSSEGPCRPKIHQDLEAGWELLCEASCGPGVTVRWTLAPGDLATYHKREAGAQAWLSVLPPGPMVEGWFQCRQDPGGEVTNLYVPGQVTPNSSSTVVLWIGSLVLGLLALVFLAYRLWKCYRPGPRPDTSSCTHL
Assay: cell binding
measured_endpoint: binding result

MAdCAM Antibody Table 1 Clone 8 (scFv) scFv: EVQLLESGGGLVQPGGSLRLSCAASGFMFGDYAMHWVRQAPGKGLEWVSAISGSGGSTYYADSVKGRFTISRDNSKNTLYLQMNSLRAEDTAVYYCAKDLVVAGIWYFDLWGRGTLVTVSSGGGGSGGGGSGGGGSGGGGSDIQMTQSPSSLSASVGDRVTITCRASQGISNNLNWYQQKPGKAPKLLIYDASSLESGVPSRFSGSGSGTDFTLTISSLQPEDFATYYCQQTHSFPSTFGQGTKLEIK    no binding
MAdCAM Antibody Table 1 Clone 20 (scFv) scFv: EVQLLESGGGLVQPGGSLRLSCAASGFTFDDYAMHWVRQAPGKGLEWVSYIDTSSSHLYYADSVKGRFTISRDNSKNTLYLQMNSLRAEDTAVYYCARDEAAAGYYGMDVWGQGTTVTVSSGGGGSGGGGSGGGGSGGGGSDIQMTQSPSSLSASVGDRVTITCQAGQDISNYLNWYQQKPGKAPKLLIYDASNLETGVPSRFSGSGSGTDFTLTISSLQPEDFATYYCQQTYSTPITFGQGTKLEIK    no binding
MAdCAM Antibody Table 1 Clone 2 (scFv) scFv: QVQLVQSGAEVKKPGASVKVSCKASGYPFIGYYLHWVRQAPGQGLEWMGIINPSGGSTSYAQKFQGRVTMTRDTSTSTVYMELSSLRSEDTAVYYCAREGRLSYGMDAWGQGTLVTVSSGGGGSGGGGSGGGGSGGGGSDIQMTQSPSSLSASVGDRVTITCRASQSISSYLAWYQQKPGKAPKLLIYGASTLESGVPSRFSGSGSGTDFTLTISSLQPEDFATYYCQQTWGPPFTFGQGTKLEIK    binds
MAdCAM Antibody Table 1 Clone 54 (scFv) scFv: EVQLLESGGGLVQPGGSLRLSCAASGFTFGDYAMSWVRQAPGKGLEWVAVVSYDGTNKYYADSVKGRFTISRDNSKNTLYLQMNSLRAEDTAVYYCAKDICSSTSCYFDLWGRGTLVTVSSGGGGSGGGGSGGGGSGGGGSDIQMTQSPSSLSASVGDRVTITCRASQNINNYVNWYQQKPGKAPKLLIYDASNLETGVPSRFSGSGSGTDFTLTISSLQPEDFATYYCQQANSFPPTFGQGTRLEIK    no binding
MAdCAM Antibody Table 1 Clone 36 (scFv) scFv: QVQLVQSGAEVKKPGASVKVSCKASGYTFTGHYMHWVRQAPGQGLEWMGIINPSGGSTSYAQKFQGRVTMTRDTSTSTVYMELSSLRSEDTAVYYCARDTGYSYGRYYYYGMDVWGQGTTVTVSSGGGGSGGGGSGGGGSGGGGSDIQMTQSPSSLSASVGDRVTITCRASQSIGRWLAWYQQKPGKAPKLLIYDASNLQSGVPSRFSGSGSGTDFTLTISSLQPEDFATYYCQQSYSIPITFGGGTKVEIK    no binding
